Target system: Low molecular weight phosphotyrosine protein phosphatase (Homo sapiens, UniProt P24666)
Assay details: Inhibition of human low molecular weight Protein-tyrosine phosphatase IF1
pIC50: −log10 of the molar value.
Property label: pIC50

Example compounds with recorded pIC50:
**Query** Give the measured pIC50 of COc1cc(/C=C2\SC(=O)N(Cc3ccc(C(=O)O)cc3)C2=O)ccc1O .
**Result** 5.04

**Query** Try this compound too: O=C(O)c1ccc(CN2C(=O)S/C(=C\c3cccc(O)c3)C2=O)cc1
**Result** 4.07

**Query** Consider next the compound O=C(O)c1ccc(CN2C(=O)S/C(=C\c3ccc(Oc4ccccc4)cc3)C2=O)cc1 in the same way.
**Result** 6.05

**Query** O=C(O)c1ccc(CN2C(=O)S/C(=C\c3cccc4ccccc34)C2=O)cc1 ?
**Result** 3.91

**Query** Consider next the compound O=C(O)c1ccc(CN2C(=O)S/C(=C\c3ccc(O)cc3)C2=O)cc1 in the same way.
**Result** 4.52

P: O=C(O)c1ccc(CN2C(=O)S/C(=C\c3cccc(OCc4ccccc4)c3)C2=O)cc1
Q: O=C(O)c1ccc(CN2C(=O)S/C(=C\c3ccc(OCc4ccccc4)cc3)C2=O)cc1
R: O=C(O)c1ccc(CN2C(=O)S/C(=C\c3cccc(Oc4ccccc4)c3)C2=O)cc1
S: O=C(O)COc1ccc(/C=C2\SC(=O)N(Cc3ccc(C(=O)O)cc3)C2=O)cc1
T: O=C(O)c1ccc(CN2C(=O)S/C(=C\c3ccc4ccccc4c3)C2=O)cc1
**Query** Rank by pIC50 (largest to smallest). A complete answer lists every label in the requested sequence.
**Result** Q, P, T, R, S
(Q: 5.60, P: 5.15, T: 4.92, R: 4.43, S: 3.66)

---

Reported IC50 for target or system Tyrosine-protein phosphatase non-receptor type 1 (Homo sapiens, UniProt P18031), by entry.
Property label: IC50 (µM)

See these solved cases before continuing.
**Query** Please give the measured IC50 for this compound: O=C(O)c1ccc(CN2C(=O)S/C(=C\c3cccc(Oc4ccccc4)c3)C2=O)cc1
**Result** 18

**Query** Note, next up: O=C(O)c1ccc(CN2C(=O)S/C(=C\c3ccc(OCc4ccccc4)cc3)C2=O)cc1
**Result** 1.6

a: O=C(O)c1ccc(CN2C(=O)S/C(=C\c3cccc4ccccc34)C2=O)cc1
b: O=C(O)c1ccc(CN2C(=O)S/C(=C\c3ccc(O)cc3)C2=O)cc1
**Query** Higher IC50 between a and b ? Mark your answer with the label of the selected entry.
**Result** b

---

Target system: Low molecular weight phosphotyrosine protein phosphatase (Homo sapiens)
Sequence (P24666 whole entry): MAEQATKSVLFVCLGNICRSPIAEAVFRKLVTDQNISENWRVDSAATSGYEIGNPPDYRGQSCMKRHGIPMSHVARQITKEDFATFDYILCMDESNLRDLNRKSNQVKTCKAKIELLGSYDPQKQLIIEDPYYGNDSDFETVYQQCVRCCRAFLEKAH
Assay details: Inhibition of human low molecular weight Protein-tyrosine phosphatase IF2
pIC50: −log10 of the molar value.
Property label: pIC50

**Query** pIC50 lookup needed for O=C(O)c1ccc(CN2C(=O)S/C(=C\c3ccc(O)cc3)C2=O)cc1 , thanks.
**Result** 4.07

**Query** Also need O=C(O)c1ccc(CN2C(=O)S/C(=C\c3cccc(O)c3)C2=O)cc1 , thanks.
**Result** 3.95

**Query** Try O=C(O)c1ccc(CN2C(=O)S/C(=C\c3cccc(Oc4ccccc4)c3)C2=O)cc1 next.
**Result** 3.89

A: O=C(O)c1ccc(CN2C(=O)S/C(=C\c3ccc4ccccc4c3)C2=O)cc1
B: O=C(O)c1ccc(CN2C(=O)S/C(=C\c3ccc(Oc4ccccc4)cc3)C2=O)cc1
**Query** Form field 'greater pIC50' accepts A or B ; which applies? Pick one; state its label.
**Result** B
(B: 4.89, A: 4.04)
